# target-entity: T1, ZFP SBS#973 (synthetic)
# T1 chain: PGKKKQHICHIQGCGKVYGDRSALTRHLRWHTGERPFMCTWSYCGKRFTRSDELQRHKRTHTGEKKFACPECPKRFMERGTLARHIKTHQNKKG
# test-name: EMSA
# run-conditions: tags: MBP fusion
pKd: −log10 of the molar value.
measured-quantity: pKd

binder="GCCGCGGTC (dsDNA) DNA 1: GCCGCGGTC DNA 2: GACCGCGGC" measured_quantity=pKd data_value=9.22
